# Study system: T1, soluble HEK (sHEK), complete extracellular domain (exodomain) of HEK encoded by exons I-VII (human, UniProt P29320 21-541)
# T1 construct: extracellular domain; Untagged soluble exodomain from CHO cells; also called HEK exodomain
# T1 sequence (looked up): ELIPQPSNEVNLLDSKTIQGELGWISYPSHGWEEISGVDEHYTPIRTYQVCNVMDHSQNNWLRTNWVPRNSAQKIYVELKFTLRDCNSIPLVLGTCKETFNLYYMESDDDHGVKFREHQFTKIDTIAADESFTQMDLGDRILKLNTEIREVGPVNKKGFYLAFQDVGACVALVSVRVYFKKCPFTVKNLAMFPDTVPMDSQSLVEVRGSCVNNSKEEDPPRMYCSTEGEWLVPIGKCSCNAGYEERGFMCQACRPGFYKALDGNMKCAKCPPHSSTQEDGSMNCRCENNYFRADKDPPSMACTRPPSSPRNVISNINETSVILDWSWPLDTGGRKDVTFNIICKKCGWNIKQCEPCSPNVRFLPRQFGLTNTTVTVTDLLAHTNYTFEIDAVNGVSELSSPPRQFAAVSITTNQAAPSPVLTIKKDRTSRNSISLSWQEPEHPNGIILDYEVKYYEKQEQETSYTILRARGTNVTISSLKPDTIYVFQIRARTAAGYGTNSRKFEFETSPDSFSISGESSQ
# Measurement notes: BIAcore, apparent KD from equilibrium responses, LERK-Fc over immobilised HEK
pKd: −log10 of the molar value.
Below, each entry is listed alongside its reported pKd.

| Binder | pKd |
| --- | --- |
| LERK 4-Fc fusion protein (Fc fusion, UniProt P52798 26-170, looked up, not shown: human Fc domain) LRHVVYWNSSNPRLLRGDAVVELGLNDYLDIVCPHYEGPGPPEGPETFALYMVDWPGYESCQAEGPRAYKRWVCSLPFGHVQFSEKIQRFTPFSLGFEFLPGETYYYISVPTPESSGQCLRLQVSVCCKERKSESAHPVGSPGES | 8.22 |
| LERK 3-Fc fusion protein (Fc fusion, UniProt P52797 23-214, looked up, not shown: human Fc domain) QGPGGALGNRHAVYWNSSNQHLRREGYTVQVNVNDYLDIYCPHYNSSGVGPGAGPGPGGGAEQYVLYMVSRNGYRTCNASQGFKRWECNRPHAPHSPIKFSEKFQRYSAFSLGYEFHAGHEYYYISTPTHNLHWKCLRMKVFVCCASTSHSGEKPVPTLPQFTMGPNVKINVLEDFEGENPQVPKLEKSISG | 8.30 |
| LERK7-Fc fusion protein (Fc fusion, UniProt P52803 21-203, looked up, not shown: Fc and hinge regions of human IgG1) QDPGSKAVADRYAVYWNSSNPRFQRGDYHIDVCINDYLDVFCPHYEDSVPEDKTERYVLYMVNFDGYSACDHTSKGFKRWECNRPHSPNGPLKFSEKFQLFTPFSLGFEFRPGREYFYISSAIPDNGRRSCLKLKVFVRPTNSCMKTIGVHDRVFDVNDKVENSLEPADDTVHESAEPSRGEN | 8.52 |
| LERK 5-Fc fusion protein (Fc fusion, UniProt P52799 28-229, looked up, not shown: human Fc domain) IVLEPIYWNSSNSKFLPGQGLVLYPQIGDKLDIICPKVDSKTVGQYEYYKVYMVDKDQADRCTIKKENTPLLNCAKPDQDIKFTIKFQEFSPNLWGLEFQKNKDYYIISTSNGSLEGLDNQEGGVCQTRAMKILMKVGQDASSAGSTRNKDPTRRPELEAGTNGRSSTTSPFVKPNPGSSTDGNSAGHSGNNILGSEVALFA | 7.62 |
